# TARGET_OR_TEST_SYSTEM: T1, human serum albumin (human, UniProt P02768 25-609)
# T1 construct: also called HSA
# T1 sequence (P02768 25-609 limits assumed): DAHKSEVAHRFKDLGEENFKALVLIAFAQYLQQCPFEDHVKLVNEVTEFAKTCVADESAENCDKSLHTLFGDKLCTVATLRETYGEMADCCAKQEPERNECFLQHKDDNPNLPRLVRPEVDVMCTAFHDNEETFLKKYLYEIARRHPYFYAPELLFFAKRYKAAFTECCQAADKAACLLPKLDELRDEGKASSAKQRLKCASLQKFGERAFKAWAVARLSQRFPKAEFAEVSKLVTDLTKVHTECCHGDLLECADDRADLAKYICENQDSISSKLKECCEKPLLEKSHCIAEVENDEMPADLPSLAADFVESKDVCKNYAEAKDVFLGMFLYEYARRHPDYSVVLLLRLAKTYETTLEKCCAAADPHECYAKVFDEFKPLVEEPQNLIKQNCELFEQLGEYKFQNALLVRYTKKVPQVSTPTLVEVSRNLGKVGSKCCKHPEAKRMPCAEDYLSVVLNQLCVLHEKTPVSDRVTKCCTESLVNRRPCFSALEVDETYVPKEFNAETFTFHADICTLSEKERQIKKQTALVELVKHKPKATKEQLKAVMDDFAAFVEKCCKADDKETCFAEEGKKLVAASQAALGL
# ASSAY_NAME: ELISA

| BINDER | binding result |
| --- | --- |
| AB129 (antibody, human IgG1, V domains shown, Tested as purified recombinant whole human IgG1 (Expi293F); also called 06-AB-129; anti-whole cell mAb) VH: QVQLVESGGGLVQPGGSLRLSCSASQFILSNYWVHWVRQVPGEGLVWVSRINEDGSVTSYADSVKGRFTISRDNAKNTLYLQMNSLRVDDTAVYYCVRDLCGERDDWGQGTLVTVSS VL: VIWMTQSPLSLPVTPGEAASISCRSSQSLLHRNGRTFFAWYLQKPGQSPQILIYLGSNRAFGVPDRFSGSGSGTDFTLKISRVEAEDVGIYYCMQGLQTPYTFGQGTKLEIK | no binding |
| AB132 (antibody, human IgG1, V domains shown, Tested as purified recombinant whole human IgG1 (Expi293F); also called 06-AB-132; anti-whole cell mAb) VH: QVLKESGGGVVQPGGSLRLSCAASPFTFETSILHWVRQAPGKGLEWVSAMSYDGFSKYYADSVKGRLTISRDSSTNTLYLEMNSLRFEDTALYFCAREAYTSGRAGCFDPWGQGVLVSVSS VL: EIVMTQSPSTQSASVGDRVTITCRASQSISIWLAWYQQKPGKAPKLLIHDASTLESGVPSRFSGSGSGTEFTLTISSLQPDDSATYYCQRYNDYPPTFGPGTKVEIK | no binding |
| AB120 (antibody, human IgG1, V domains shown, Tested as purified recombinant whole human IgG1 (Expi293F); also called 06-AB-120; anti-Hyr1 mAb) VH: EVQLVQSGGGLVQPGGSLGLSCAASGFIFTSYAMTWVRQAPGKGLEWVSVITGNVGTSYYADSVKGRFTISRDNSKKTVSLQMNSLRAEDTAIYYCVKTRYDFSSGYYFDDWGQGTLVSVSS VL: DIVMTQSPSSVSASVGDKVTITCRASQGISRWLAWYQQKPGEAPELLIYAASSLQSGVPSRFSGSGSGTDFTLTISSLQPEDFATYYCQQANSFPITFGQGTRLQIK | no binding |
